Reference for the values: ChEMBL document CHEMBL1149279

target_of_assay: Adenosine receptor A3 (Homo sapiens)
Sequence (P0DMS8 whole entry): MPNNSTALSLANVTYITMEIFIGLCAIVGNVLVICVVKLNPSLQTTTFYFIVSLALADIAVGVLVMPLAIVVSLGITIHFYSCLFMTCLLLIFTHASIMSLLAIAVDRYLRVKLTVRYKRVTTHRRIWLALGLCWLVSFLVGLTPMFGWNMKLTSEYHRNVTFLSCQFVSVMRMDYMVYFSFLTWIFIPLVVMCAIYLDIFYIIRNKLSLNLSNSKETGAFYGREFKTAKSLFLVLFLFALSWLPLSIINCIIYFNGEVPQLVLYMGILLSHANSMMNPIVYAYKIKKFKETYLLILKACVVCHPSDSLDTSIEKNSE
assay_protocol: Displacement of [125I]AB-MECA from human adenosine A3 receptor expressed in HEK293 cells
Format: cell-based
Kindly state Ki for each of the entries shown.

Entry under test: CC(C)C(=O)Nc1cc(-c2ccccc2)nc(-c2ccccc2)n1 . Its Ki was 267 nM (antagonist)

Entry under test: CCC(=O)Nc1cc(-c2ccccc2)nc(-c2ccccc2)n1 . Its Ki was 22.4 nM (antagonist)

Entry under test: CCCCCC(=O)Nc1cc(-c2ccccc2)nc(-c2ccccc2)n1 . Its Ki was 392 nM (antagonist)

Entry under test: O=C(Nc1cc(-c2ccccc2)nc(-c2ccccc2)n1)c1ccccc1 . Its Ki was 1300 nM (antagonist)

Entry under test: CC(=O)Nc1cc(-c2ccccc2)nc(-c2ccccc2)n1 . Its Ki was 6.88 nM (antagonist)

Entry under test: CCC(C)C(=O)Nc1cc(-c2ccccc2)nc(-c2ccccc2)n1 (stereo unspecified) . Its Ki was 147 nM (antagonist)
